Structures can show the parent of a compound that is named as a salt.
For each entry below, report its melting point value.

Challenge: Please give the measured melting point for this compound: O=C(NCc1cccc(F)c1)N1CCC(Nc2ccc(CCNC[C@H](O)COc3ccc(O)cc3)cc2)CC1 [Example 27]
Response given: 68 to 73 °C

Challenge: Can you handle COc1ccc(CCCCNC(=O)N2CCC(Nc3ccc(CCNCC(O)COc4ccc(O)cc4)cc3)CC2)cc1OC (stereo not shown) [Example 57] next?
Response given: 60 to 62 °C

Challenge: Can you handle O=C(c1c[nH]c2ccccc12)N1CCC(Nc2ccc(CCNC[C@H](O)COc3ccc(O)cc3)cc2)CC1 [Example 99] next?
Response given: 90 to 92 °C

Challenge: Can you handle O=C(OCc1ccc(F)cc1)N1CCC(Nc2ccc(CCNC[C@H](O)COc3ccc(O)cc3)cc2)CC1 [Example 121] next?
Response given: 60 to 62 °C

Challenge: Can you handle Oc1ccc(OC[C@@H](O)CNCCc2ccc(NC3CCN(c4nc(-c5ccccc5)cs4)CC3)cc2)cc1 (as salt: hydrochloride) [Example 117] next?
Response given: 80 to 82 °C

Challenge: Can you handle O=C(NCC(c1ccccc1)c1ccccc1)N1CCC(Nc2ccc(CCNC[C@H](O)COc3ccc(O)cc3)cc2)CC1 [Example 31] next?
Response given: 91 to 94 °C

Challenge: Can you handle O=C(NCCCCCCCCF)N1CCC(Nc2ccc(CCNC[C@H](O)COc3ccc(O)cc3)cc2)CC1 [Example 55] next?
Response given: 148 to 150 °C

Challenge: Can you handle O=C(NCc1ccc(F)cc1)N1CCC(Sc2ccc(CCNC[C@H](O)COc3ccc(O)cc3)cc2)CC1 [Example 42] next?
Response given: 181 to 183 °C

Challenge: Can you handle O=C(O)COc1ccc(NC(=O)N2CCC(Nc3ccc(CCNC[C@H](O)COc4ccc(O)cc4)cc3)CC2)cc1 (as salt: salt) [Example 58] next?
Response given: 175 °C

Challenge: Can you handle O=C(NCc1ccc(Cl)cc1Cl)N1CCC(Nc2ccc(CCNC[C@H](O)COc3ccc(O)cc3)cc2)CC1 (as salt: ammonium) [Example 20] next?
Response given: 93 to 99 °C
